As shown below, each of these compounds has a reported IC50 value.
Biological target: Sodium/glucose cotransporter 1 (Homo sapiens)
Sequence (P13866 whole entry): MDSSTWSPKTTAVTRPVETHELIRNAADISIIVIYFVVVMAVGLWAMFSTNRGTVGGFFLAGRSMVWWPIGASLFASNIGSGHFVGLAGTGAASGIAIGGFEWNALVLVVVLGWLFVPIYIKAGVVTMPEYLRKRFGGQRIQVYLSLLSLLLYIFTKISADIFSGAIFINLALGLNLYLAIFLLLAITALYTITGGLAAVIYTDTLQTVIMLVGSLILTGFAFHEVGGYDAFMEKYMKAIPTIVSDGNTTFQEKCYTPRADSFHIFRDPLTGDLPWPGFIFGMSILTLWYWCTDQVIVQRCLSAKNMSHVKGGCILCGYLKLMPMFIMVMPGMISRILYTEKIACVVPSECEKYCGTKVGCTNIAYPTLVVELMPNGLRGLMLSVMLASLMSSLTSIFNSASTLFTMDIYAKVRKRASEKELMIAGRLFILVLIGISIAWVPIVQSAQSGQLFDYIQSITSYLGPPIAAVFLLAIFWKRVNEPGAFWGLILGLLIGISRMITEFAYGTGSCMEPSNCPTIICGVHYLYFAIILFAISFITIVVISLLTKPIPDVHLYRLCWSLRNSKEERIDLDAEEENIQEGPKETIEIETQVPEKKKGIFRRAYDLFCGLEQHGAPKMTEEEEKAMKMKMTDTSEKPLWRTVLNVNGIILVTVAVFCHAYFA
Assay: Inhibition of SGLT1 transfected in african green monkey COS1 cells assessed as alpha-D-[U-14C]glucopyranoside uptake after 30 mins by scintillation counting
Assay type: cell-based, COS-1
Details: read-out: IC50
Kindly provide the numeric value in µM only, without the unit symbol.

molecular_string | assayed_target | IC50, µM
Oc1cc(O)cc([C@@H]2c3cc([C@@H]4Oc5cc(-c6cc7ccc(O)cc7o6)cc(O)c5[C@H]4c4cc(O)cc(O)c4)c(O)cc3O[C@H]2c2ccc(O)cc2O)c1 | Sodium/glucose cotransporter 1 (Homo sapiens) | 37

[in] Entry Oc1cc(O)cc([C@@H]2c3cc([C@@H]4Oc5cc(/C=C/c6ccc(O)cc6O)cc(O)c5[C@H]4c4cc(O)cc(O)c4)c(O)cc3O[C@H]2c2ccc(O)cc2O)c1 : reported IC50 = ?
[out] 27
